# method description: APR_HepG2_MitoMembPot_72hr: Apredica 72-hour HepG2 Assay for Mitochondrial Membrane Potential (AID 2282917)
# details: imaging, actives raise or lower the signal
Active and inactive are the calls of the source. The calls were made as follows: active = hit-call score of the fitted dose curve at least 0.9, where 1 is the maximum; inactive = score below 0.9.
Parameter call: string, one of active, inactive

* COCCOC[C@H](CC1(C(=O)NC2CCC(C(=O)O)CC2)CCCC1)C(=O)Oc1ccc2c(c1)CCC2 (stereo not given in full) | inactive
* NC(=O)Cn1c(=O)cc(CCN2CCN(c3nccc4sccc34)CC2)c2ccc(F)cc21 | inactive
* CNC(=O)[C@H]1O[C@@H](n2cnc3c(NCc4cc(Cl)ccc4OCc4cc(C)no4)ncnc32)[C@H](O)[C@@H]1N | inactive
* CC(=O)Oc1ccccc1C(=O)O | inactive
* CCCCCCOCCO | inactive
* Nc1ccc2c(c1)C(=O)c1ccccc1C2=O | inactive

Which outcome was entered for the molecule "CCOc1ccc2c(c1)C(C)=CC(C)(C)N2" in this test? inactive

Same read-out for "Clc1cc(Cl)c(Cl)cc1Cl" ? inactive

Also "NS(=O)(=O)c1cc2c(cc1Cl)NCNS2(=O)=O" ? inactive

Then this molecule: "FC(F)(F)C(F)(F)C(F)(F)C(F)(F)C(F)(F)C(F)(F)CCI" inactive

Again, but for "C=CCc1ccc(O)c(OC)c1" active

Moving on to the next molecule: "OC[C@@H](O)[C@@H](O)[C@H](O)[C@H](O)CO" inactive

// same read-out, input: "Cc1cc(=O)[nH]c(=S)[nH]1" inactive

Also "c1cc(-c2ccncc2)ccn1" ? inactive

Same thing, different molecule: "Cc1cc(NC(=O)C(=O)O)cc(C)c1Oc1ccc(O)c2c1CCC2" inactive
